Biological target: T1, rat angiotensin 2 type 1 receptor (rat, UniProt P25095 1-359)
T1 sequence (looked up): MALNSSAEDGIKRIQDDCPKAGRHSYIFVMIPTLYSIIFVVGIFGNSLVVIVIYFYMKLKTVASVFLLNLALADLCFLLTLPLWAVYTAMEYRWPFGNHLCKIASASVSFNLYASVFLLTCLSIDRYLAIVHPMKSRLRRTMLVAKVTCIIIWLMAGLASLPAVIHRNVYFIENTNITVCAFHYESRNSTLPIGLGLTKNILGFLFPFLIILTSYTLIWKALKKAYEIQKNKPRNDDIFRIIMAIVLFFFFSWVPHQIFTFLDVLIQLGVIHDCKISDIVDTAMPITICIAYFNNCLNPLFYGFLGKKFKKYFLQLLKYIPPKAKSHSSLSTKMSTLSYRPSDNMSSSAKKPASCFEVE
Assay: cell-based or functional assay
Non-standard residues stand in square brackets, D forms with d. No end group written: not given here. Sar = CNCC(=O)O
readout type: b-arrestin2 Max (%)
Answer in %, number only, no unit symbol.

[Sar]KVYIHP[dA]-OH (N-terminus assumed; SMILES CC[C@H](C)[C@H](NC(=O)[C@H](Cc1ccc(O)cc1)NC(=O)[C@@H](NC(=O)[C@H](CCCCN)NC(=O)CNC)C(C)C)C(=O)N[C@@H](Cc1c[nH]cn1)C(=O)N1CCC[C@H]1C(=O)N[C@H](C)C(=O)O) [SEQ ID NO: 49]	52.9
RVYIHP (C-terminal amide (NH2)) [SEQ ID NO: 13]	165

Now consider the entry below.
b-arrestin2 Max (%) lookup needed for [Sar]RVYVH-NH2 (N-terminus assumed; SMILES CNCC(=O)N[C@@H](CCCNC(=N)N)C(=O)N[C@H](C(=O)N[C@@H](Cc1ccc(O)cc1)C(=O)N[C@H](C(=O)N[C@@H](Cc1c[nH]cn1)C(N)=O)C(C)C)C(C)C) [SEQ ID NO: 55] , thanks. 95.6
